# RUN DESCRIPTION: 2-hour single-point pharmacokinetic (PK) study, blood and brain
# Format: in vivo, C57BL/6 female mice
# TEST CONDITIONS: female, C57BL/6, mouse, brain / blood; PO 25 mg/kg, 2 hours after dosing; read-out: brain uptake ratio over the blood
MEASURED PARAMETER: Kp at 2 h

Query: Entry "Oc1ccc(-n2nc3c(Cl)cc(O)cc3c2Cl)cc1" has what Kp at 2 h?
Result: ~7

====

# RUN DESCRIPTION: 2-hour single-point pharmacokinetic (PK) study, blood and brain
# Assay type: in vivo, C57BL/6 female mice
# TEST CONDITIONS: female, C57BL/6, mouse, brain / blood; PO 25 mg/kg, 2 hours, n=3; read-out: concentration in brain relative to concentration in blood
MEASURED PARAMETER: Kp at 2 h
Quick one: just the number, no unit, thanks!

Query: Entry Oc1ccc(-n2nc3cc(F)c(O)cc3c2Cl)cc1 [Compound 17] has what Kp at 2 h?
Result: 3

====

# TESTED SYSTEM: purified, full length human ERβ (Homo sapiens)
# Construct: purified, full length human ERα and ERβ
# RUN DESCRIPTION: Relative binding affinity (RBA) radiometric competitive binding assay, ERβ
# TEST CONDITIONS: text statement of the β/α ratio
MEASURED PARAMETER: selectivity of binding to ERβ vs ERα (fold)
Lab book: enter the figure in fold, no units written.

{"SMILES CODE": "Oc1ccc(-n2cc3cc(O)cc(Cl)c3n2)c(F)c1", "TESTED SYSTEM": "purified, full length human ERβ (Homo sapiens)", "selectivity of binding to ERβ vs ERα [fold]": 185}
{"SMILES CODE": "Oc1cccc(-n2nc3c(Br)cc(O)cc3c2Cl)c1", "TESTED SYSTEM": "purified, full length human ERβ (Homo sapiens)", "selectivity of binding to ERβ vs ERα [fold]": 246}

Query: Under purified, full length human ERβ (Homo sapiens): selectivity of binding to ERβ vs ERα value of "Oc1ccc(-n2cc3cc(O)cc(Cl)c3n2)cc1" ?
Result: 200

Query: Under purified, full length human ERβ (Homo sapiens): selectivity of binding to ERβ vs ERα value of "Oc1cc(Cl)c2nn(-c3ccc(O)c(F)c3)cc2c1" ?
Result: 469

Query: Under purified, full length human ERβ (Homo sapiens): selectivity of binding to ERβ vs ERα value of "Cc1cc(O)cc2cn(-c3ccc(O)cc3)nc12" ?
Result: 144

Query: Under purified, full length human ERβ (Homo sapiens): selectivity of binding to ERβ vs ERα value of "Oc1ccc(-n2cc3cc(O)cc(Br)c3n2)cc1" ?
Result: 131

====

Items are presented alongside their recorded RBA ERβ.
# TESTED SYSTEM: purified, full length human ERβ (Homo sapiens, UniProt Q92731)
# Construct: purified, full length human ERα and ERβ
# Sequence (Q92731 whole entry): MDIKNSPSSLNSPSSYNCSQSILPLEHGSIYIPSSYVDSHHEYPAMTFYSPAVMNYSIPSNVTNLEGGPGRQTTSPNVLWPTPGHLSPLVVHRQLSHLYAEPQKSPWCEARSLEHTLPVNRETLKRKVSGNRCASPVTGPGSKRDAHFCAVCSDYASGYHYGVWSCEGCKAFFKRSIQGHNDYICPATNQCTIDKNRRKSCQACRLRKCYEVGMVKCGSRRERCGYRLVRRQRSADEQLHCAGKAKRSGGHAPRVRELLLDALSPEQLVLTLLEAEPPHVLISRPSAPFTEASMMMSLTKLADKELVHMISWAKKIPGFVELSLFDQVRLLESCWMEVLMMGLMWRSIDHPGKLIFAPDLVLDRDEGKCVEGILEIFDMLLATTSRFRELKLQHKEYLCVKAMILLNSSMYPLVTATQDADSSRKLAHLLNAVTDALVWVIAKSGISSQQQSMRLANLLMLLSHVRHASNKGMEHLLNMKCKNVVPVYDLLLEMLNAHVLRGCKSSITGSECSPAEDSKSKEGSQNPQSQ
# RUN DESCRIPTION: Relative binding affinity (RBA) radiometric competitive binding assay, ERβ
# TEST CONDITIONS: relative binding affinity, E2 (estradiol) is 100%; tritiated estradiol tracer
Answer with the number, then the unit.

{"SMILES CODE": "Oc1ccc(-n2nc3c(O)cc(O)cc3c2Cl)cc1", "RESULT": "0.051%"}

Query: Entry "Oc1ccc(-n2cc3cc(O)cc(Cl)c3n2)c(F)c1" has what RBA ERβ?
Result: 9.63%

Query: Entry "Cc1cc(O)cc2cn(-c3ccc(O)cc3)nc12" has what RBA ERβ?
Result: 2.59%

Query: Entry "Cc1cc(O)ccc1-n1nc2cc(F)c(O)cc2c1Cl" has what RBA ERβ?
Result: 2.53%

Query: Entry "Oc1cc(Cl)c2nn(-c3ccc(O)c(F)c3)c(Cl)c2c1" has what RBA ERβ?
Result: 32.96%

Query: Entry "Cc1cc(O)cc2c(Cl)n(-c3ccc(O)cc3)nc12" has what RBA ERβ?
Result: 45.9%

Query: Entry "Oc1cc(Cl)c2nn(-c3ccc(O)c(F)c3)cc2c1" has what RBA ERβ?
Result: 10.76%

Query: Entry "Cc1cc(O)ccc1-n1nc2cc(Cl)c(O)cc2c1Cl" has what RBA ERβ?
Result: 0.187%

Query: Entry "Oc1cccc(-n2nc3c(Br)cc(O)cc3c2Cl)c1" has what RBA ERβ?
Result: 39.4%

Query: Entry "Oc1ccc(-n2cc3cc(O)cc(F)c3n2)cc1" has what RBA ERβ?
Result: 22.4%

Query: Entry "Oc1ccc(-n2cc3cc(O)cc(Cl)c3n2)cc1" has what RBA ERβ?
Result: 19.6 ± 6.1%

Query: Entry "Oc1ccc(-n2nc3c(Cl)cc(O)cc3c2Cl)c(F)c1" has what RBA ERβ?
Result: 31.76%

Query: Entry "Oc1ccc(-n2cc3cc(O)cc(Br)c3n2)cc1" has what RBA ERβ?
Result: 32.01 ± 0.09%

Query: Entry "Oc1ccc(-n2nc3cc(Cl)c(O)cc3c2Cl)cc1" has what RBA ERβ?
Result: 0.852%

Query: Entry "Oc1ccc(-n2nc3c(F)cc(O)cc3c2Cl)cc1" has what RBA ERβ?
Result: 82.3%

Query: Entry "Oc1ccc(-n2nc3cc(F)c(O)cc3c2Cl)cc1" has what RBA ERβ?
Result: 47.11%

Query: Entry "Cc1cc(O)ccc1-n1nc2c(O)cc(O)cc2c1Cl" has what RBA ERβ?
Result: 0.006%
